system: HCV 1b_Huh-Luc/Neo-ET cell line persistently expressing a bicistronic genotype 1b replicon in Huh 7 cells; assay: HCV replicon assay (luciferase readout, 72 h); type: cell-based, HCV genotype 1b; conditions: Hepatitis C virus, Huh-7, 72 h, read-out: Inhibition of HCV genotype 1b
pEC50: −log10 of the molar value.
Overview of reported pEC50 across a group of molecules:

Reported pEC50 for COC(=O)N[C@@H](CC(C)C)C(=O)N1CCC[C@H]1c1ncc(-c2ccc(C#Cc3ccc(-c4cnc([C@@H]5CCCN5C(=O)[C@H](CC(C)C)NC(=O)OC)[nH]4)cc3)cc2)[nH]1 [Compound 961] was > 9.00

Memo: O=C(N[C@@H](C(=O)N1CCC[C@H]1c1nc(-c2ccc3cc(C#Cc4cnc([C@@H]5CCCN5C(=O)[C@H](NC(=O)C5CC5)c5ccccc5)[nH]4)ccc3c2)c[nH]1)c1ccccc1)C1CC1 [Compound 804] , reported pEC50: > 9.00

Notebook: COC(=O)N[C@@H](C(=O)N1CCC[C@H]1c1ncc(-c2ccc(C#Cc3ccc(C(=O)NC[C@@H]4CCCN4C(=O)[C@H](NC(=O)N4CCN(C)CC4)c4ccccc4)cc3)cc2)[nH]1)c1ccccc1 [Compound 236] , pEC50 read as > 9.00

###

system: HCV 1b_Huh-Luc/Neo-ET cell line persistently expressing a bicistronic genotype 1b replicon in Huh 7 cells; experiment: HCV replicon assay (luciferase readout, 72 h); format: cell-based, HCV genotype 1b; conditions: Hepatitis C virus, Huh-7, 72 h, read-out: Inhibition of HCV genotype 1b
TEST READOUT: EC50

[[record]]
smiles_representation = "CC[C@H](NC(=O)OC)C(=O)N1CCC[C@H]1c1ncc(-c2ccc(C#Cc3ccc(-c4cnc([C@@H]5CCCN5C(=O)[C@H](CC)NC(=O)OC)[nH]4)cc3)cc2)[nH]1"
test_readout = "EC50"
result = "< 1 nM"


Value of measured EC50 for the entry COC(=O)N[C@@H](C(=O)N1CCC[C@H]1c1ncc(-c2ccc(C#Cc3ccc(-c4cnc([C@@H]5CCCN5C(=O)[C@H](NC(=O)N5CCC[C@H]5C)c5ccccc5)[nH]4)cc3)cc2)[nH]1)c1ccccc1 : < 1 nM

Sample C[C@H](NC(=O)[C@@H]1CCCN1C(=O)[C@H](NC(=O)OC(C)(C)C)c1ccccc1)c1ccc(C#Cc2ccc(-c3cnc([C@@H]4CCCN4C(=O)[C@H](NC(=O)OC(C)(C)C)c4ccccc4)[nH]3)cc2)cc1 ; EC50 observed: 1 to 9.9 nM

The molecule listed as COC(=O)N[C@@H](C(=O)N1CCC[C@H]1c1ncc(-c2ccc(C#Cc3ccc(-c4cnc([C@@H]5CCCN5C(=O)[C@H](NC(=O)N5CCOCC5)c5ccccc5)[nH]4)cc3)cc2)[nH]1)c1ccccc1 shows EC50 equal to < 1 nM

###

System: HCV 1b_Huh-Luc/Neo-ET cell line persistently expressing a bicistronic genotype 1b replicon in Huh 7 cells
Assay: HCV replicon assay (luciferase readout, 72 h)
Type: cell-based, HCV genotype 1b
Conditions: Hepatitis C virus, Huh-7, 72 h, read-out: Inhibition of HCV genotype 1b
Protocol: Biological activity of the compounds of the invention was determined using an HCV replicon assay. The HCV 1b_Huh-Luc/Neo-ET cell line persistently expressing a bicistronic genotype 1b replicon in Huh 7 cells was obtained from ReBLikon GMBH. This cell line was used to test compound inhibition using luciferase enzyme activity readout as a measurement of compound inhibition of replicon levels. […] The EC50 value was determined using GraphPad Prism and the following equation: […]
TEST READOUT: EC50

Reference set, count: 4
[[record]]
molecule = "CN1CCN(C(=O)N[C@@H](C(=O)N2CCC[C@H]2c2ncc(C#Cc3ccc(-c4cnc([C@@H]5CCCN5C(=O)[C@H](NC(=O)N5CCN(C)CC5)c5ccccc5)[nH]4)cc3)[nH]2)c2ccccc2)CC1 [Compound 118]"
result = "10 to 999 nM"

[[record]]
molecule = "COC(=O)N[C@H](C(=O)N1CCC[C@H]1c1nc2c([nH]1)-c1ccc(C#Cc3ccc(-c4cnc([C@@H]5CCCN5C(=O)[C@@H](NC(=O)OC)C5CCOCC5)[nH]4)cc3)cc1CC2)C(C)C [Compound 1091]"
result = "< 1 nM"

[[record]]
molecule = "COC(=O)N[C@H](C(=O)N1CCC[C@H]1c1ncc(-c2ccc(C#Cc3ccc(-c4cnc([C@@H]5CCCN5C(=O)[C@@H](NC(=O)N5CCN(CCO)CC5)c5ccccc5)[nH]4)cc3)cc2)[nH]1)C(C)C [Compound 990]"
result = "1 to 9.9 nM"

[[record]]
molecule = "CC(C)[C@@H](NC(=O)C1CC1)C(=O)N1CCC[C@H]1c1ncc(-c2ccc(C#Cc3ccc(-c4cnc([C@@H]5CCCN5C(=O)[C@H](NC(=O)C5CC5)C(C)C)[nH]4)cc3)cc2)[nH]1 [Compound 155]"
result = "1 to 9.9 nM"


// field: EC50; key: CC(C)(C)OC(=O)N[C@@H](C(=O)N1CCC[C@H]1CNC(=O)c1ccc(C#Cc2ccc(-c3cnc([C@@H]4CCCN4C(=O)[C@H](NC(=O)OC(C)(C)C)c4ccccc4)[nH]3)cc2)cc1)c1ccccc1 [Compound 192] ; value = 1 to 9.9 nM

The recorded EC50 for COC(=O)N[C@H](C(=O)N1CCC[C@H]1c1ncc(-c2ccc(C#Cc3ccc(-c4cnc([C@@H]5CCCN5C(=O)[C@H](NC(=O)N5CCC(O)CC5)c5ccccc5)[nH]4)cc3)cc2)[nH]1)C(C)C [Compound 991] is 1 to 9.9 nM

Entry COC(=O)N[C@H](C(=O)N1CCC[C@H]1c1nc2ccc(C#Cc3ccc(-c4cnc([C@@H]5CCCN5C(=O)[C@H](NC(=O)OC)c5ccccc5)[nH]4)cc3)cc2[nH]1)C(C)C [Compound 1022] ; EC50 = < 1 nM

Measured EC50, CC(=O)N[C@@H](C(=O)N1CCC[C@H]1c1ncc(C#Cc2ccc(C#Cc3cnc([C@@H]4CCCN4C(=O)[C@H](NC(C)=O)c4ccccc4)[nH]3)cc2)[nH]1)c1ccccc1 [Compound 306] : < 1 nM

Measured EC50, COC(=O)N[C@H](C(=O)N1CCC[C@H]1c1ncc(-c2ccc(C#Cc3ccc4nc([C@@H]5CCCN5C(=O)[C@H](C(C)C)N(C)C)[nH]c4c3)cc2)[nH]1)C(C)C [Compound 1021] : < 1 nM
